# target-or-test-system: Corticotropin-releasing factor receptor 1 (Rattus norvegicus)
# Sequence (P35353 whole entry): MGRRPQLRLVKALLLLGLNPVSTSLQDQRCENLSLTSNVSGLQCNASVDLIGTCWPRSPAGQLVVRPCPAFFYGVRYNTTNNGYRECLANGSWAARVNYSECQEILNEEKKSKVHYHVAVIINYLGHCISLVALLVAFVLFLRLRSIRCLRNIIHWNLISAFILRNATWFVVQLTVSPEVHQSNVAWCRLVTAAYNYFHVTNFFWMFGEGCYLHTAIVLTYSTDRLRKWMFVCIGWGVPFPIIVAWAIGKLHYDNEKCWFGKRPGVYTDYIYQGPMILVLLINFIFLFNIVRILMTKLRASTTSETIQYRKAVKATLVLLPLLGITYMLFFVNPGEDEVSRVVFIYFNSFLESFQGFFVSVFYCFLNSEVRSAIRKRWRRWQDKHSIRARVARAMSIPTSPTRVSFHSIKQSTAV
# procedure-summary: Antagonist activity at rat CFR1R
pIC50: −log10 of the molar value.
The reader will find reported pIC50 values listed item by item below.
readout-kind: pIC50

{"compound": "CC[C@H](C1CC1)n1c(=O)c(C)nc2c(-c3cc(F)c(OC)cc3Cl)ccnc21", "readout-kind": "pIC50", "value-observed": 8.77}
{"compound": "CCC(C1CC1)n1c(=O)c(C)nc2c(-c3cc(C)c(C)cc3C)ccnc21 (racemic)", "readout-kind": "pIC50", "value-observed": 8.28}
{"compound": "COc1ccc(-c2ncnc3c2nc(C)c(=O)n3C(C2CC2)C2CC2)c(C)c1", "readout-kind": "pIC50", "value-observed": 7.43}
{"compound": "CC[C@@H](COC)n1c(=O)c(C)nc2c(-c3ccc(Cl)cc3Cl)ccnc21", "readout-kind": "pIC50", "value-observed": 7.13}
{"compound": "CCC(COC)n1c(=O)c(C)nc2c(-c3cc(F)c(OC)cc3Cl)ccnc21 (centres undefined)", "readout-kind": "pIC50", "value-observed": 8.68}
{"compound": "CCC(C1CC1)n1c(=O)c(C)nc2c(-c3cc(Cl)c(OC)cc3OC)ccnc21 (racemic)", "readout-kind": "pIC50", "value-observed": 8.47}
{"compound": "Cc1nc2c(-c3ccc(Cl)cc3Cl)ccnc2n(CC(C)C)c1=O", "readout-kind": "pIC50", "value-observed": 5.46}
{"compound": "CCOc1cc(Cl)c(-c2ccnc3c2nc(C)c(=O)n3C(CC)C2CC2)cc1C (racemic)", "readout-kind": "pIC50", "value-observed": 8.70}
{"compound": "COc1ccc(-c2ccnc3c2nc(C)c(=O)n3C(C2CC2)C2CC2)c(C)c1", "readout-kind": "pIC50", "value-observed": 8.52}
